Target: human CD33 Y127A (human, UniProt P20138 18-364)
Sequence (P20138 18-364 Y127A limits assumed): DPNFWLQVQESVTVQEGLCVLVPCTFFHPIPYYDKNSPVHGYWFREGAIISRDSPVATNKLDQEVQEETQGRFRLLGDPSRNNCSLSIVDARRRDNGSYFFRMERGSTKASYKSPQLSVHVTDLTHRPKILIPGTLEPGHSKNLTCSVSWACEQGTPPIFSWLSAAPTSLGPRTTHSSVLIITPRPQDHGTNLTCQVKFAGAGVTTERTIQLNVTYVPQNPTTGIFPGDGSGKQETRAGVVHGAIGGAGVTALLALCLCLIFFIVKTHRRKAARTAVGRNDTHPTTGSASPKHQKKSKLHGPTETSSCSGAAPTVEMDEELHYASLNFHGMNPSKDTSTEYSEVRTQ
Assay: flow cytometry on HEK293-T, alanine scan
I'd appreciate it if you could supply Mean % WT Binding values for the items below.
Output should be the measured figure followed by the unit it is expressed in.

What value of Mean % WT Binding has been reported for the following binder? Refmab #4 (antibody, V domains shown, The alanine scan used IgG or Fab) VH: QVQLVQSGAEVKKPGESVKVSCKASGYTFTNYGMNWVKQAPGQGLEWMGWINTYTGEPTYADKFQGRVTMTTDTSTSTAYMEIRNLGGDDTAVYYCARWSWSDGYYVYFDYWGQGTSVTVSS VL: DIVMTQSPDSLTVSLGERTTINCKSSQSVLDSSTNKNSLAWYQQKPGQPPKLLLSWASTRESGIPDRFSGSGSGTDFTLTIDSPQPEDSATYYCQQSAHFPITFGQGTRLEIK
300 % WT binding

Next binder up: Refmab #1 (antibody, V domains shown, The alanine scan used IgG or Fab; also called hP67.6) VH: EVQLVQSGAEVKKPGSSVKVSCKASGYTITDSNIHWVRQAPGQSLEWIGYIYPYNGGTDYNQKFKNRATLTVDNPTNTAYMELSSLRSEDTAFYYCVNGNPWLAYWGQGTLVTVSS VL: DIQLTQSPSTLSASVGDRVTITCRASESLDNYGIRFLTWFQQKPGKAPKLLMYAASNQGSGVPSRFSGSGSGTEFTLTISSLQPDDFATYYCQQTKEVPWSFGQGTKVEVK
92.6 % WT binding

Next binder up: Refmab #2 (antibody, V domains shown, The alanine scan used IgG or Fab) VH: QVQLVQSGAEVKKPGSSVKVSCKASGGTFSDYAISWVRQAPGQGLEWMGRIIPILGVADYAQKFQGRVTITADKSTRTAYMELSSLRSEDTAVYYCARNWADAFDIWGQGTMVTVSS VL: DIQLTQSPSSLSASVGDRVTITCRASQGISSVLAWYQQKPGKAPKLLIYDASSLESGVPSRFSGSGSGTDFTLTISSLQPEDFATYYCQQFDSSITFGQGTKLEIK
146 % WT binding

Next binder up: Refmab #3 (antibody, V domains shown, The alanine scan used IgG or Fab) VH: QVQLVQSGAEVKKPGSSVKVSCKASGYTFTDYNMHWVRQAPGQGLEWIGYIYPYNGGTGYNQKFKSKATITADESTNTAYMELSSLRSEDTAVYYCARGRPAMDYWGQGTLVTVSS VL: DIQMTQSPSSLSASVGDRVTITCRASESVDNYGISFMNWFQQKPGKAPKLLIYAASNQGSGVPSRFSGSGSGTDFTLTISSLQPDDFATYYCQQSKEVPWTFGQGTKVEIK
31.9 % WT binding
